molecular target: cloned recombinant human HDAC-1 (Homo sapiens, UniProt Q13547); construct: made in house; host or cells: Baculovirus insect cell expression system; experiment: Human HDAC-1 enzyme inhibition, Assay 1 ([3H]-acetylated histone substrate, scintillation counting); type: biochemical; conditions: Table 5c; read-out: Human HDAC-1 IC50
Sequence (Q13547 whole entry): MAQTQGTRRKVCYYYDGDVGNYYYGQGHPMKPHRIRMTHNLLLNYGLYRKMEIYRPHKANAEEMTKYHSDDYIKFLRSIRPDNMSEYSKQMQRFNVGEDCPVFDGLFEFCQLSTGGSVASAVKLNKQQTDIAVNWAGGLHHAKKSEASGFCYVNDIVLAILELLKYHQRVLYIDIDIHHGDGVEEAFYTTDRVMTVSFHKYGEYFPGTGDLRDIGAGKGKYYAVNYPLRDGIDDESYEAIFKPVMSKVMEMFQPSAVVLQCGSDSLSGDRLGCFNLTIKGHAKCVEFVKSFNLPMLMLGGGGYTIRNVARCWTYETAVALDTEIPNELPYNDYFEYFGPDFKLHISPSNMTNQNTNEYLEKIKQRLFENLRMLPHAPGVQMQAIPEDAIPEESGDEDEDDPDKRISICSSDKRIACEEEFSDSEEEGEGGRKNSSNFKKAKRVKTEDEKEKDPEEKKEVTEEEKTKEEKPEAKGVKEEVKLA
In this section, each of the compounds is paired with its reported IC50.

Nc1ccccc1NC(=O)/C=C/c1ccc(CSc2ccc3ccccc3n2)cc1 [Cpd 110] :: 3 µM
Nc1ccccc1NC(=O)/C=C/c1ccc(NCCCn2ccnc2)nc1 [Cpd 97] :: 10 µM

input: Consider the compound Nc1ccccc1NC(=O)/C=C/c1ccc(NCc2cccnc2)nc1 [Cpd 90] . State its measured IC50.
output: 10 µM

input: // Input: Nc1ccccc1NC(=O)/C=C/c1ccc(NCc2cccc(C(F)(F)F)c2)nc1 [Cpd 101] . Output its IC50 only.
output: 3 µM

input: Please indicate IC50 recorded for Nc1ccccc1NC(=O)/C=C/c1ccc(NC/C=C/c2ccccc2)cc1 [Cpd 71]
output: 10 µM

Every entry's value here was drawn from patent US7868204B2.
